B1: LINE1-full (parent)
chain: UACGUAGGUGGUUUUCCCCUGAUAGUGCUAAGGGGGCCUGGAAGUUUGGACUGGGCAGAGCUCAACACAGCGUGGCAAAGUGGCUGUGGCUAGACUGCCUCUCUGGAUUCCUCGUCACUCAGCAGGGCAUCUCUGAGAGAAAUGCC

variants of: B1; assay: self-cleavage, relative activity (ratio to wild type); higher = more cleavage; in vitro, sequencing; the parent is a self-cleaving ribozyme

variant notation | self-cleavage
U20C A65U | 0.14
A22U U108A | 1.08
U20A C131U | 1.36
U46A U132C | 1.32
A6U U9C | 0.36
U20C U115C | 1.57
G10U U104C | 2.42
A57G U115C | 1.3
A59U A124G | 0.75
U112C U115C | 1.29
U73A A121G | 1.93
U26A C103U | 0.98
A107G A129G | 1.63
G27A A138G | 1.02
U14A U45C | 1.09
U1C A79U | 2.16
A43G U119C | 1.51
A22G A79U | 1.51
A94G G114A | 0.23
U15C A78U | 2.44
A6G G139U | 0.96
A77G C99U | 1.01
G35U A77U | 1.31
U1A U14A | 0.89
A43U U91C | 0.68
G83A U85C | 0.09
U29C A107U | 1.21
C17U U104A | 0.95
G106U U108C | 1.32
C19U A67G | 0
C16U U108A | 1.14
U20C A57U | 0.07
U26C G53U | 1.2
G27A U132C | 1.27
G58U U143C | 0.07
G88A U119A | 0.06
U62C U112G | 0
C113U A136U | 1.75
G106C | 1.37
U20A U143A | 1.43
A79C U108C | 2.12
U12A U73C | 1.11
G44A U100A | 0.85
U23C C146A | 0
U45C A94U | 0.33
U62C C101U | 0.07
A6G A77U | 0.92
A24U A107G | 2.24
U119C C145U | 1.25
U15C C120U | 1.72
U14C C68U | 0.32
A22U A50G | 1.01
G74U A141G | 1.68
G88A U112A | 0.08
U119C C128U | 1.13
U12A A142G | 1.31
A64U G125U | 0.41
C18A G88U | 0.12
C95A A142G | 0.08
U9A C90U | 0
G89U U109A | 0.02
U102C A124U | 1.14
A121U A124C | 1.14
G33C A64U | 0.64
U100C A107G | 1.73
U52G G80C | 0.97
A6G U14C | 0.61
U62C G72C | 0.03
U45G U62C | 0.02
C123U U132A | 1.13
U15C A92U | 0.79
U20C A57G | 1.19
G75A A129G | 1.61
A43G A92U | 0.92
G75A U100A | 0.42
U46C U108G | 1.15
A6G A124G | 0.38
C76U U143C | 2.01
U23C C101U | 1.31
A42G U115A | 1.24
A6G G60U | 0.19
A64G A121U | 0.22
A50U U132C | 1.05
U13C A78G | 0.99
A50C U115C | 1.84
U47C A64G | 0.31
U81C U143A | 1.22
G8U A50G | 1.19
U45C C84A | 0.09
A57G C120U | 1.54
U46A A141G | 1.36

Attribution: the RNAGym collection of RNA variant scans (doi:10.7554/elife.90254)
